Data provenance: patent US6780884B2

Recorded % bound at competitor concentration 10-7M by entry
system: 125I-Melatonin Binding in Membranes of Hamster Brain; experiment: 125I-Melatonin binding in membranes of hamster brain (competition); conditions: competitor 10^-7M, relative to competitor concentration 0
# number only, unit % dropped from output

Solved entries (count: 2):
compound="CC(=O)Nc1cc(NCCc2c[nH]c3ccccc23)c([N+](=O)[O-])cc1[N+](=O)[O-] [ML-26, 2,4-dinitro-5-tryptylaminoacetanilide]" quantity_unit=% observed_value=104
compound="Cc1ccc2[nH]cc(CCNc3ccc([N+](=O)[O-])cc3[N+](=O)[O-])c2c1 [ML-28, N-(2,4-dinitrophenyl)-5-methyltryptamine]" quantity_unit=% observed_value=91

Q: Entry Cc1ccc2[nH]cc(CCNc3cc(N)c([N+](=O)[O-])cc3[N+](=O)[O-])c2c1 [ML-31] has what % bound at competitor concentration 10-7M?
Ans: 94
